Reported values of IC50 for individual entries
molecular target: HEK 293 GPR73 (prokineticin 1 receptor) expressing cells (Homo sapiens); assay: PK1 functional assay: screening for PK1 antagonists on the FLIPR (calcium fluorescence); settings: HEK 293 GPR73 cells, PK1 ligand at EC50, multiple values = repeat tests, read-out: Ca^2+ Mobilization IC50
Sequence (Q8TCW9 whole entry): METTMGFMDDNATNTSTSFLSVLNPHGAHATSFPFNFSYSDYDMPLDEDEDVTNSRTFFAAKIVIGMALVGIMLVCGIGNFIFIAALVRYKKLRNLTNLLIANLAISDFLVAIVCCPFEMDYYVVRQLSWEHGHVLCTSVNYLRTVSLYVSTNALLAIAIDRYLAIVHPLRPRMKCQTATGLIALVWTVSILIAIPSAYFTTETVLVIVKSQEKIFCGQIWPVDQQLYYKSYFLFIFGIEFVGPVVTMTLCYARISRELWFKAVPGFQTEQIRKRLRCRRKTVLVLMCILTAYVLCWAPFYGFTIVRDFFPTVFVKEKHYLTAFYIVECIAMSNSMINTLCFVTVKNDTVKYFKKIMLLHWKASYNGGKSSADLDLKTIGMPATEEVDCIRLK
Please answer in the form of a number followed by its unit of measurement.

Use these answered entries as a reference point.
COc1ccc(Cn2c(NCCNC(=N)Nc3ccc(OC(F)(F)F)cc3)nc(=O)n(Cc3ccc(F)cc3)c2=O)cc1 | 58 nM
COc1ccc(Cn2c(N[C@@H]3CCCC[C@H]3NC(=N)N)nc(=O)n(Cc3ccc(Cl)cc3)c2=O)cc1 | 61 nM
COc1ccc(Cn2c(NCCNC(=N)NCCCN3CCOCC3)nc(=O)n(Cc3ccc(F)cc3)c2=O)cc1 | 9070 nM

Measured IC50 for this entry `COc1ccc(Cn2c(NCCNC(=N)Nc3ccc(C(C)=O)cc3)nc(=O)n(Cc3ccc(Cl)c(Cl)c3)c2=O)cc1` on HEK 293 GPR73 (prokineticin 1 receptor) expressing cells (Homo sapiens): 230 nM

====

target: HEK 293 GPR73 (prokineticin 1 receptor) expressing cells (Homo sapiens); construct: expressed in transfected cells; host or cells: HEK 293; assay: PK1 functional assay: screening for PK1 antagonists on the FLIPR (calcium fluorescence); format: cell-based; conditions: HEK293, compound at 10 μM, HEK 293 GPR73 cells, multiple values = repeat tests, read-out: Ca^2+ Mobilization % Inh @10 μM
measured_quantity: inhibition at 10 µM (%)
Write down the numeric answer in % and omit the unit.

Use these answered entries as a reference point.
COc1ccc(Cn2c(NCCNC3=NCC(=O)N3)nc(=O)n(Cc3ccc(Cl)c(Cl)c3)c2=O)cc1 [Cpd 48] | 94
COc1ccc(Cn2c(NCCNC(=N)N)cc(=O)n(Cc3ccccc3)c2=O)cc1 [Cpd 81] | 84

compound COc1ccc(Cn2c(NCCNC(=N)NCc3ccco3)nc(=O)n(Cc3ccc(Cl)c(Cl)c3)c2=O)cc1 [Cpd 66] , inhibition at 10 µM observed: 99

compound CCOc1ccc(Cn2c(NCCNC(=N)N)nc(=O)n(Cc3ccccc3)c2=O)cc1 [Cpd 12] , inhibition at 10 µM observed: 97

compound COc1ccc(Cn2c(NCCNC(=N)NCC(F)(F)F)nc(=O)n(Cc3ccc(F)cc3)c2=O)cc1 [Cpd 114] , inhibition at 10 µM observed: 99

compound COc1ccc(Cn2c(NCCNC(=N)N)nc(=O)n(Cc3ccc(SC)cc3)c2=O)cc1 [Cpd 45] , inhibition at 10 µM observed: 103

compound COc1ccc(Cn2c(NCCNC(=N)NC3CCCCC3)nc(=O)n(Cc3ccc(Cl)c(Cl)c3)c2=O)cc1 [Cpd 62] , inhibition at 10 µM observed: 98

compound COc1ccc(Cn2c(=O)nc(NCCNC(=N)N)n(Cc3ccc(OC)nc3)c2=O)cc1 [Cpd 85] , inhibition at 10 µM observed: 96

compound C=CCNC(=N)NCCNc1nc(=O)n(Cc2ccc(F)cc2)c(=O)n1Cc1ccc(OC)cc1 [Cpd 152] , inhibition at 10 µM observed: 97

compound COc1ccc(Cn2c(N[C@H](C)[C@@H](C)NC(=N)N)nc(=O)n(Cc3ccc(F)cc3)c2=O)cc1 [Cpd 137] , inhibition at 10 µM observed: 101

compound N=C(N)NCCNc1nc(=O)n(Cc2ccc(Cl)c(Cl)c2)c(=O)n1Cc1ccc(OC(F)F)cc1 [Cpd 41] , inhibition at 10 µM observed: 101

compound COc1ccc(Cn2c(NCCNC(=N)N)nc(=O)n(Cc3ccc(N)cc3)c2=O)cc1 [Cpd 125] , inhibition at 10 µM observed: 83

compound N=C(N)NCCNc1nc(=O)n(Cc2ccc(Cl)cc2)c(=O)n1Cc1ccoc1 [Cpd 130] , inhibition at 10 µM observed: 71

compound COc1ccc(Cn2c(NCCN3CCNC3=N)nc(=O)n(Cc3ccc(Cl)c(Cl)c3)c2=O)cc1 [Cpd 60] , inhibition at 10 µM observed: 100

compound CCCNC(=N)NCCNc1nc(=O)n(Cc2ccc(Cl)c(Cl)c2)c(=O)n1Cc1ccc(OC)cc1 [Cpd 54] , inhibition at 10 µM observed: 98

src = patent US20080045535A1
